- target: T1, AGS73.15 (MS497)
- T1 construct: It carries a human IgG Fc (detected with anti-human IgG Fc)
- T1 sequence (VH, as listed by the source, chain 1 of 2): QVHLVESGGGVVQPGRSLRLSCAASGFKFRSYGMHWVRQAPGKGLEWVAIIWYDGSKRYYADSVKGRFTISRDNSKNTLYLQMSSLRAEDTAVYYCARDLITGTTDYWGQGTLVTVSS
- T1 sequence (VL, as listed by the source, chain 2 of 2): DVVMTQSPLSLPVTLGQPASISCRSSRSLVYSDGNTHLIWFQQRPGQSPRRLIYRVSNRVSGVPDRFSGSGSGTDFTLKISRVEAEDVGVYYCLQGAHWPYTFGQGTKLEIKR
- assay-summary: flow cytometry, blocking of AGS73.15 (200 ng/ml) binding to CD3ε on human T cells; AGS73.15 detected with anti-human IgG Fc-PE
# Lookup of reported IC50 (read off the curve) keyed by entry

6d59.id.1b73.1 (antibody, V domains shown, Anti-idiotypic antibody against 6d59) VH: QVQLQQSGPEVVKPGASVKMSCKASGYTFTDCVISWIKQRTGQGLEWIGEIHPGSGNTYNNEKFKGKATLTADKSSNTAYIQLSSLTSEDSAVYFCARVGDWYDDAMDYWGQGTSVTVSS VL: DIVLTQSPASLAVSLGQRATISCKASQSVDYDGNGYMNWYQQKPGQPPKLLIYAASNLESGIPARFSGSGSGTDFTLNIHPVEEEDAATYYCQQSNEDPYTFGGGTKLEIKR; ~0.05 µg/mL

binder 6d59.id.1b61.1 (antibody, V domains shown, Anti-idiotypic antibody against 6d59) VH: DVQLQESGPGLVKPSQSLSLTCSVTGYSITSSYYWNWIRQFPGNKLEWMGYIMYDGNNNYNPSLKNRISITRDTSKNQFFLKLNSVTTEDTATYYCARNMADYFGNTYDALDYWGQGTSVTVSS VL: DILLTQSPGSLAVSLGQRATISCKASQSADYGGDSYMSWYQQKPGQPPKLLIYAASNLESGTPARFSGSGSGTDFTLNIHPVEEEDAATYYCQQGNEDPWTFGGGTKLEIKR , IC50 (read off the curve) observed: ~0.06 µg/mL

Per the records, this binder ( 6d59.id.1b76.1 (antibody, V domains shown, Anti-idiotypic antibody against 6d59) VH: DVKLVDSGGGLVKPGGSLKLSCAASGFTFSNYGMSWVRQTPEKRLEWVATISSGGYYTYYPDSVKGRFTISRDNAKNTLYLQMGSLKSEDTAMYYCSRDREGFGNYLGAMDYWGQGTSVTVSS VL: DIVLTQSPASLAVSLGQRATISCKASQSVDYDGNGYMNWYQQKPGQPPKLLIYAASNLESGIPARFSGSGSGTDFTLNIHPVEEEDAATYYCQQSNEDPYTFGGGTKLEIKR ) has IC50 (read off the curve) equal to ~0.05 µg/mL
